Entries and their pKd
- TARGET_OR_SYSTEM: Thermolysin (Bacillus thermoproteolyticus, UniProt P00800)
- Sequence (P00800 whole entry): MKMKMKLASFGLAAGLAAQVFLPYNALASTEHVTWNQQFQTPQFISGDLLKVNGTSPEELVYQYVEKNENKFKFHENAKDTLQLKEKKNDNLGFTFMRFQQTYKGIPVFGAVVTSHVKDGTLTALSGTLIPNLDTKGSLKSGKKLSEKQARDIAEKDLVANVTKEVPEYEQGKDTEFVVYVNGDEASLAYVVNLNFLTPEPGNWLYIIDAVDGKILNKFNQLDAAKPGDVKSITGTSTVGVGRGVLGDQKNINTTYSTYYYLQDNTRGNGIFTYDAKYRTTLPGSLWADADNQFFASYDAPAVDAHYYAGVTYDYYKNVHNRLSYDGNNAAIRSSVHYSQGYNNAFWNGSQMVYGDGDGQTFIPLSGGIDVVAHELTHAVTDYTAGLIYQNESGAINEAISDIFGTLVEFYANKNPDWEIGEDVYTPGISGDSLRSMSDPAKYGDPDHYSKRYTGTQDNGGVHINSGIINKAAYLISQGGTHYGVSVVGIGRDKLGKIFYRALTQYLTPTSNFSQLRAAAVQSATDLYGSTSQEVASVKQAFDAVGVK
pKd: −log10 of the molar value. Peptide text beside a SMILES is read from it.

COMPOUND | pKd
CC(C)C[C@H](NP(=O)(O)O)C(N)=O | 5.89
O=[N+]([O-])Nc1ccccc1 [Nitroanilide] | 6.37
CC(C)[C@H](N)C(=O)N[C@@H](Cc1c[nH]c2ccccc12)C(=O)O [Val-Trp] (H-Val-Trp-OH) | 5.91
CC(C)C[C@H](NP(=O)(O)O[C@@H]1O[C@@H](C)[C@H](O)[C@@H](O)[C@H]1O)C(=O)N[C@@H](Cc1c[nH]c2ccccc12)C(=O)O | 7.55

----------
pKd: −log10 of the molar value. Numbered stars: 1 amine (or outer) side, 2 acyl side, 3 side chain; on linkers, the order of the positions; unused ones are H or OH. Square brackets hold non-standard residues; d marks the D form. Peptide text beside a SMILES is read from it. Phe(ψ(S)CH(OH)CH2N)Pro = O=C([C@@H]1CCCN1C[C@H](O)[C@H](Cc1ccccc1)N[*:1])[*:2]; Nle = CCCC[C@H](N)C(=O)O; Orn = NCCC[C@H](N)C(=O)O
Recorded below: pKd, system Human immunodeficiency virus type 1 protease (Human immunodeficiency virus 1).
ASSAY_ENDPOINT: pKd

MOLECULE | REPORTED_MEASUREMENT
CC(C)[C@H](NC(=O)N(C)Cc1ccccn1)C(=O)N[C@@H](Cc1ccccc1)[C@H](O)[C@H](O)[C@H](Cc1ccccc1)NC(=O)[C@@H](NC(=O)N(C)Cc1ccccn1)C(C)C | 10.08
CC1(C)S[C@H]([C@H](NC(=O)Cc2ccccc2)C(=O)NCc2ccccc2)N[C@H]1C(=O)N[C@@H](CO)Cc1ccccc1 [GR-126045] | 8.10
C=CO [E1203] | 8.41
O=C1N(Cc2ccc3ccccc3c2)[C@H](Cc2ccccc2)[C@H](O)[C@@H](O)[C@@H](Cc2ccccc2)N1Cc1ccc2ccccc2c1 | 9.52
O=C(N[C@H]1c2ccccc2C[C@H]1O)[C@H](Cc1ccccc1)CC(O)C[C@@H](Cc1ccccc1)C(=O)N[C@H]1c2ccccc2C[C@H]1O [L-700417] | 9.15
CC(C)[C@H](NC(=O)N(C)Cc1ccccn1)C(=O)N[C@@H](Cc1ccccc1)[C@@H](O)[C@H](O)[C@H](Cc1ccccc1)NC(=O)[C@@H](NC(=O)N(C)Cc1ccccn1)C(C)C | 9.01
CC(C)CN(C[C@@H](O)[C@H](Cc1ccccc1)NC(=O)O[C@H]1CCOC1)S(=O)(=O)c1ccc(N)cc1 [VX-478] | 9.23
CC[C@H](C)[C@H](NC(=O)[C@@H]1CCCN1C[C@H](O)[C@H](Cc1ccccc1)NC(=O)[C@H](CC(N)=O)NC(=O)[C@H](CC(C)C)NC(=O)[C@H](CO)NC(C)=O)C(=O)N[C@H](C(=O)OC)C(C)C (Ac-SLN[Phe(ψ(S)CH(OH)CH2N)Pro]IV-OMe) | 9.63
CC(C)[C@H](NC(=O)N(C)Cc1ccccn1)C(=O)N[C@@H](Cc1ccccc1)C[C@@H](O)[C@H](Cc1ccccc1)NC(=O)[C@@H](NC(=O)N(C)Cc1ccccn1)C(C)C | 10.46
CC(C)[C@H](NC(=O)N(C)Cc1ccccn1)C(=O)N[C@@H](Cc1ccccc1)[C@H](O)[C@@H](O)[C@H](Cc1ccccc1)NC(=O)[C@@H](NC(=O)N(C)Cc1ccccn1)C(C)C [JMC51852 Inhibitor PP] | 10.12
CCCC[C@H](NC(=O)[C@H](CCCC)NC(=O)[C@@H](NC(=O)[C@@H](NC(C)=O)[C@@H](C)O)[C@@H](C)CC)C(=O)N[C@@H](CCCN)C(=O)N[C@@H](CCCN=C(N)N)C(N)=O (Ac-TI[Nle][Nle][Orn]R-NH2) | 6.11
COC(=O)[C@@H](NC(=O)[C@@H](NC(=O)[C@H](C)N1CCC([C@H](C)NC(=O)[C@H](C)N)=C[C@@H](Cc2ccccc2)C1)C(C)C)C(C)C [SB-203238] | 6.37
CC1(C)SC(C(NC(=O)Cc2ccccc2)C(=O)NCc2ccccc2)NC1C(=O)NC(Cc1ccccc1)C(O)CC(=O)NCC1=NC2C=CC=CC2=N1 (stereo not drawn) [GR-137615] | 9.69
